- test-system: SFN 14-3-3 (Homo sapiens)
- Sequence (P31947 1-236): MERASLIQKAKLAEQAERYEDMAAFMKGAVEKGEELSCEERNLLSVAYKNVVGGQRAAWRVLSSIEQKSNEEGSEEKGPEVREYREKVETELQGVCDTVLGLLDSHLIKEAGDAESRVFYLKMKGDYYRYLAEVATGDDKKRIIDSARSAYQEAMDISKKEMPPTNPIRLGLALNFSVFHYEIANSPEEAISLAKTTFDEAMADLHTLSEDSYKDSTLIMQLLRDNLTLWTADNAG
- protocol-notes: FP competition, SFN 14-3-3
property-name: pIC50
Please express pIC50 as -log10 of the molar concentration.

Quickly give me recorded pIC50 for Ac-NEPTTPSWLADIPPWVP-NH2 [MAP1A]
2.71

* * *

Please provide measured IC50 for the entries that follow.
- test-system: KPNA4 ARM (Homo sapiens)
- Construct: O00629; KPNA4; Arm; 68; 487; pETM33/pETM41; Genescript; made in house; host or cells: bacteria (E. coli BL21(DE3) gold is named only for the phage-selection preparations)
- Sequence (O00629 68-487): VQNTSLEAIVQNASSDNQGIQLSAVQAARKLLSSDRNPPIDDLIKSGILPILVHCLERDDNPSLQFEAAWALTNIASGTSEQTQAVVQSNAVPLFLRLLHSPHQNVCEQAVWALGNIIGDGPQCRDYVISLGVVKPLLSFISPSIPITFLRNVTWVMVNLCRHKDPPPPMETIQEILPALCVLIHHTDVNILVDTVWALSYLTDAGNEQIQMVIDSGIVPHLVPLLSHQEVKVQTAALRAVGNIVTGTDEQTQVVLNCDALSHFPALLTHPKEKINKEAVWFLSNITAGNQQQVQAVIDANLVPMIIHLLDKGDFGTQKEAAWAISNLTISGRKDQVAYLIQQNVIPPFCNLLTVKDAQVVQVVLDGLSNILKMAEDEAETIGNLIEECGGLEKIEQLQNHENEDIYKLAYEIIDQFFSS
- protocol-notes: FP competition, KPNA4 ARM minor pocket (FITC-NCOR2 probe)
- Assay type: binding
Where a SMILES comes first, the peptide text is derived from it. [ ]: non-standard residue; d: D form. pY = N[C@@H](Cc1ccc(OP(=O)(O)O)cc1)C(=O)O; pS = N[C@@H](COP(=O)(O)O)C(=O)O
Write it as a number; the unit µM goes unstated.

Quickly give me recorded IC50 for CC[C@H](C)[C@H](NC(=O)[C@H](CC(N)=O)NC(=O)CNC(=O)[C@H](CCC(=O)O)NC(=O)[C@@H](NC(=O)[C@H](CO)NC(=O)[C@H](CCC(=O)O)NC(=O)[C@H](Cc1ccc(O)cc1)NC(=O)[C@H](COP(=O)(O)O)NC(=O)[C@H](CCCNC(=N)N)NC(=O)[C@H](CCCCN)NC(=O)[C@H](CC(C)C)NC(=O)[C@H](CO)NC(=O)[C@@H](NC(=O)[C@H](CCC(=O)O)NC(C)=O)[C@@H](C)CC)C(C)C)C(=O)N[C@@H](CCCCN)C(N)=O [NCOR1 pS1246] (Ac-EISLKR[pS]YESVEGNIK-NH2)
240

Quickly give me recorded IC50 for CC[C@H](C)[C@H](NC(=O)[C@H](CC(N)=O)NC(=O)CNC(=O)[C@H](CCC(=O)O)NC(=O)[C@@H](NC(=O)[C@H](CO)NC(=O)[C@H](CCC(=O)O)NC(=O)[C@H](Cc1ccc(O)cc1)NC(=O)[C@H](CO)NC(=O)[C@H](CCCNC(=N)N)NC(=O)[C@H](CCCCN)NC(=O)[C@H](CC(C)C)NC(=O)[C@H](COP(=O)(O)O)NC(=O)[C@@H](NC(=O)[C@H](CCC(=O)O)NC(C)=O)[C@@H](C)CC)C(C)C)C(=O)N[C@@H](CCCCN)C(N)=O [NCOR1 pS1242] (Ac-EI[pS]LKRSYESVEGNIK-NH2)
31

Quickly give me recorded IC50 for CC[C@H](C)[C@H](NC(=O)[C@H](CC(N)=O)NC(=O)CNC(=O)[C@H](CCC(=O)O)NC(=O)[C@@H](NC(=O)[C@H](CO)NC(=O)[C@H](CCC(=O)O)NC(=O)[C@H](Cc1ccc(OP(=O)(O)O)cc1)NC(=O)[C@H](CO)NC(=O)[C@H](CCCNC(=N)N)NC(=O)[C@H](CCCCN)NC(=O)[C@H](CC(C)C)NC(=O)[C@H](CO)NC(=O)[C@@H](NC(=O)[C@H](CCC(=O)O)NC(C)=O)[C@@H](C)CC)C(C)C)C(=O)N[C@@H](CCCCN)C(N)=O [NCOR1 pY1247] (Ac-EISLKRS[pY]ESVEGNIK-NH2)
21

Quickly give me recorded IC50 for CC(C)C[C@H](NC(=O)[C@H](CCCCN)NC(=O)[C@H](CCCNC(=N)N)NC(=O)[C@H](CCCCN)NC(=O)[C@@H]1CCCN1C(=O)[C@H](CO)NC(=O)[C@@H]1CCCN1)C(=O)N[C@@H](CCC(=O)O)C(=O)N[C@@H](CCC(=O)O)C(=O)N1CCC[C@H]1C(=O)N[C@H](C(=O)N[C@@H](CC(C)C)C(=O)N[C@@H](CCC(=O)O)C(=O)N[C@@H](Cc1ccccc1)C(=O)N[C@@H](CCCNC(=N)N)C(=O)N1CCC[C@H]1C(N)=O)C(C)C
1.3
